The reported numbers originate from patent US10766869B2.

- Test system: primary rat mixed cortical cells
- measurementDescription: In vitro myelination assay (MBP positive myelin strands, fold myelin pixels above background)
- Assay type: cell-based
- runConditions: Rattus norvegicus, 1.0 μM compound, relative to baseline of no added compound; read-out: Fold myelin pixels above background
readoutType: fold induction at 1 µM

Query: Which measured fold induction at 1 µM value corresponds to `Cc1cc(Nc2ncn(-c3ccc(F)c(C)c3)n2)cc(N2CCN(C3COC3)CC2)c1` ?
Response: 1 to 10

Query: Now the compound `CC(F)(F)c1cc(Nc2ncn(-c3cc(F)cc(F)c3)n2)nc(N2CCN(C3COC3)CC2)c1`
Response: 10 to 100

Query: Now the compound `COc1c(C)cc(N2CCN(C3COC3)CC2)cc1Nc1ncn(-c2cnccn2)n1`
Response: 1 to 10

Query: Now the compound Cc1cc(Nc2ncn(-c3cc(F)cc(F)c3)n2)cc(N2CC(N3CCOC4CC43)C2)c1 (stereo not shown)
Response: 10 to 100

Query: Now the compound Cc1cc(Nc2ncn(-c3cc(F)cc(F)c3)n2)cc(O[C@@H]2CCCN(C3COC3)C2)c1 (single isomer, unassigned)
Response: 10 to 100

Query: Now the compound `COC[C@H](C)NC(=O)C1CN(c2cc(C)cc(Nc3ncn(-c4cc(F)cc(F)c4)n3)c2)C1`
Response: 10 to 100

Query: Now the compound `Cc1cc(Nc2ncn(-c3cc(F)cc(F)c3)n2)cc(N2CC(O)(C(C)C)C2)c1`
Response: 10 to 100

----------
Exercise: state measured fold induction at 10 µM for each of the compounds provided.
- Tested on: primary rat mixed cortical cells
- measurementDescription: In vitro myelination assay (MBP positive myelin strands, fold myelin pixels above background)
- Format: cell-based
- runConditions: Rattus norvegicus, 10.0 μM compound, relative to baseline of no added compound; read-out: Fold myelin pixels above background, 10.0 μM

Query: Param readout = fold induction at 10 µM; param system = primary rat mixed cortical cells; param query = `Cc1cc(Nc2ncn(-c3cnccn3)n2)cc(N2CCN(C)CC2)c1` ; response: value
Response: 1000 to 10000

Query: Now the compound `CC(=O)N1CCC(c2cc(C)cc(Nc3ncn(-c4cc(F)cc(F)c4)n3)c2)CC1`
Response: 1 to 10

Query: Now the compound `Cc1cc(Nc2ncn(-c3cc(F)cc(F)c3)n2)cc(N2CCOCC2)c1`
Response: 100 to 1000

Query: Now the compound Cc1cc(Nc2ncn(-c3ccccc3)n2)cc(N2CCC(C)(O)C2)c1 (centres unmarked)
Response: 10 to 100

Query: Now the compound `Cc1cc(Nc2ncn(-c3cc(C)cc(F)c3)n2)cc(N2CCN(C3COC3)CC2)c1`
Response: 100 to 1000

Query: Now the compound `Cc1cc(Nc2ncn(-c3cccc(C#N)c3)n2)cc(N2CCCC2)c1`
Response: ≤ 1

Query: Now the compound Cc1cc(Nc2ncn(-c3cc(F)cc(F)c3)n2)cc(N2CCN(C3CCCOC3)CC2)c1 (centres unmarked)
Response: 100 to 1000

Query: Now the compound COC1CCN(c2cc(C)cc(Nc3ncn(-c4cc(F)cc(F)c4)n3)c2)C1 (centres unmarked)
Response: 1 to 10

Query: Now the compound `c1ccc(-n2cnc(Nc3cc(C4CCOCC4)cc(C4CCOCC4)c3)n2)cc1`
Response: ≤ 1

Query: Now the compound `Cc1cc(Nc2ncn(-c3ccccc3)n2)cc(N2C[C@@H]3C[C@H]2CN3C2CC2)c1`
Response: 10 to 100

Query: Now the compound `Fc1cc(Nc2ncn(-c3cc(F)cc(F)c3)n2)cc(N2CCN(C3COC3)CC2)c1`
Response: 100 to 1000

Query: Now the compound `Cc1cc(Nc2ncn(-c3cc(F)cc(F)c3)n2)cc(N2CCN(C)CC2)c1`
Response: ≤ 1

Query: Now the compound `CCc1cc(Nc2ncn(-c3ccc(OC(F)(F)F)cc3)n2)cc(N2CCN(C3COC3)CC2)c1`
Response: 1 to 10

Query: Now the compound `Cc1cc(Nc2ncn(-c3cc(F)cc(F)c3)n2)cc(N2CCN3CCC[C@@H]3C2)c1`
Response: 10 to 100

Query: Now the compound `COCC1CCN(c2cc(Cl)cc(Nc3ncn(-c4ccccc4)n3)c2)CC1`
Response: 100 to 1000

Query: Now the compound `Cc1cc(Nc2ncn(-c3ccccc3)n2)cc(N2CC3(COC3)C2)c1`
Response: 1000 to 10000

Query: Now the compound Cc1cc(Nc2ncn(-c3cc(F)cc(F)c3)n2)cc(N2CCC(N3CCOCC3)C2)c1 (centres unmarked)
Response: 1 to 10

----------
- Tested on: primary rat mixed cortical cells
- measurementDescription: In vitro myelination assay (MBP positive myelin strands, fold myelin pixels above background)
- Format: cell-based
- runConditions: Rattus norvegicus, 1.0 μM compound, relative to baseline of no added compound; read-out: Fold myelin pixels above background
Exercise: state measured fold induction at 1 µM for each of the compounds provided.

Query: Which measured fold induction at 1 µM value corresponds to Fc1cc(F)cc(-n2cnc(Nc3cc(C(F)(F)F)cc(N4CCN(C5CCOC5)CC4)n3)n2)c1 (centres unmarked) ?
Response: ≤ 1

Query: Now the compound `N#Cc1cc(Nc2ncn(-c3ccc(F)c(F)c3)n2)nc(N2CCN(C3COC3)CC2)c1`
Response: 10 to 100

Query: Now the compound `Cc1cc(Nc2ncn(-c3cc(F)cc(F)c3)n2)cc(N2CCC3(COC3)C2)c1`
Response: ≤ 1

Query: Now the compound `Fc1cc(-n2cnc(Nc3cc(C(F)F)cc(N4CCN(C5COC5)CC4)n3)n2)ccc1Cl`
Response: 10 to 100

Query: Now the compound `Cc1cc(Nc2ncn(-c3ccc(F)c(F)c3)n2)cc(N2CCN(C3COC3)CC2)c1`
Response: 100 to 1000

Query: Now the compound COC1CC(Nc2cc(C)cc(Nc3ncn(-c4cc(F)cc(F)c4)n3)c2)C1 (centres unmarked)
Response: 100 to 1000

Query: Now the compound `COc1cc(Nc2ncn(-c3ccc(Cl)c(F)c3)n2)nc(N2CCN(C3COC3)CC2)c1`
Response: 10 to 100

Query: Now the compound CC(=O)N(C)C1CCN(c2cc(C)cc(Nc3ncn(-c4cc(F)cc(F)c4)n3)c2)C1 (centres unmarked)
Response: 100 to 1000

Query: Now the compound `Cc1cc(Nc2ncn(-c3cc(F)ccc3F)n2)cc(N2CCN(C3(C)COC3)CC2)c1`
Response: 100 to 1000

Query: Now the compound Cc1cc(Nc2ncn(-c3cc(F)cc(F)c3)n2)cc(N2CC3CC2CO3)c1 (centres unmarked)
Response: 10 to 100

Query: Now the compound `N#Cc1cc(Nc2ncn(-c3ccccc3)n2)cc(N2CCOCC2)c1`
Response: 10 to 100

Query: Now the compound `Cc1cc(Nc2ncn(-c3cc(F)c(F)cc3F)n2)cc(N2CCN(C3COC3)CC2)c1`
Response: ≤ 1

Query: Now the compound `Cc1cc(Nc2ncn(-c3ccc(F)cc3)n2)cc(C2COC2)c1`
Response: 1000 to 10000

Query: Now the compound `Cc1cc(Nc2ncn(-c3ccccc3)n2)cc(N2CCN(C3(C)COC3)CC2)c1`
Response: 1000 to 10000

Query: Now the compound `Fc1cc(Nc2ncn(-c3cc(F)cc(F)c3)n2)cc(NC2COC2)c1`
Response: 1 to 10

Query: Now the compound `Fc1cc(F)cc(-n2cnc(Nc3cc(N4CC(N5CCOCC5)C4)cc(Cl)n3)n2)c1`
Response: ≤ 1

Query: Now the compound `Fc1cc(F)cc(-n2cnc(Nc3cc(N4CCN(C5COC5)CC4)cc(Cl)n3)n2)c1`
Response: 1 to 10

----------
- Tested on: primary rat mixed cortical cells
- measurementDescription: In vitro myelination assay (MBP positive myelin strands, fold myelin pixels above background)
- Assay type: cell-based
- runConditions: Rattus norvegicus, 10.0 μM compound; read-out: Fold myelin pixels above background relative to baseline of no added compound
readoutType: fold induction at 10 µM

Query: Which measured fold induction at 10 µM value corresponds to `Cc1cc(Nc2ncn(-c3cc(F)cc(F)c3)n2)c(F)c(N2CCN(C(CO)CO)CC2)c1` ?
Response: ≤ 1

Query: Now the compound `CC(=O)OCC(COC(C)=O)N1CCN(c2cc(C)cc(Nc3ncn(-c4cc(F)cc(F)c4)n3)c2F)CC1`
Response: 1 to 10

Query: Now the compound Cc1cc(Nc2ncn(-c3cc(F)cc(F)c3)n2)cc(NC2CCN(CC3CCCO3)CC2)c1 (centres unmarked)
Response: ≤ 1

Query: Now the compound Cc1cc(Nc2ncn(-c3cc(F)cc(F)c3)n2)cc(N2CCOC(COC(C)C)C2)c1 (centres unmarked)
Response: 1 to 10

Query: Now the compound `Cc1cc(Nc2ncn(-c3cc(F)cc(F)c3)n2)c(F)c(N2CC(N3CCOCC3)C2)c1`
Response: 10 to 100

Query: Now the compound `Cc1c(Nc2ncn(-c3ccccn3)n2)cc(N2CCN(C3COC3)CC2)cc1OC(C)C`
Response: 10 to 100

Query: Now the compound Cc1cc(Nc2ncn(-c3cc(F)cc(F)c3)n2)cc(N2CCC(C3CCOC3)C2)c1 (centres unmarked)
Response: ≤ 1

Query: Now the compound `[2H]c1nc(Nc2cc(C)cc(N3CCN(C4COC4)CC3)c2)nn1-c1cc(F)cc(F)c1`
Response: 10 to 100
